Numbers sourced from patent US11498899B2.

System: wheat (Triticum aestivum)
test description: Test A postemergence, visual injury rating 0-100
Assay type: in vivo
applied conditions: 125 g ai/ha, 0 to 100 scale
assay readout: Wheat plant response rating
Lab note: jot the number down without any unit.

Before answering, review these 3 worked examples.
CC1=[N+]([O-])C(C(=O)Nc2ccccc2C#N)C(c2ccc(C(F)(F)F)cc2)C1 (racemic) [Compound 32] :: 0
CC1=[N+]([O-])C(C(=O)Nc2cccc(F)c2F)C(c2cccc(Oc3ccc(Cl)cn3)c2)C1 (racemic) [Compound 56] :: 20
CC1=[N+]([O-])C(C(=O)Nc2cccc(F)c2F)C(c2cccc(C3OCCO3)c2)C1 (racemic) [Compound 105] :: 0

Task: Report Wheat plant response rating from wheat (Triticum aestivum) testing of CC1=[N+]([O-])[C@@H](C(=O)Nc2cccc(F)c2F)[C@H](c2ccc(F)c(F)c2)C1 [Compound 39]
Output: 50

Task: # return Wheat plant response rating of CCOc1cc(OC)cc(C2CC(C)=[N+]([O-])C2C(=O)Nc2cccc(F)c2F)c1 (racemic) [Compound 116] (system: wheat (Triticum aestivum))
Output: 20

Task: Consider the compound CC1=[N+]([O-])C(C(=O)Nc2cccc(F)c2F)C(c2cccc(Cl)c2C)C1 (racemic) [Compound 117] tested on wheat (Triticum aestivum); state its Wheat plant response rating.
Output: 20

Task: State, for wheat (Triticum aestivum), measured Wheat plant response rating of the compound listed here: CC1=[N+]([O-])[C@@H](C(=O)Nc2ccccc2F)[C@H](c2ccc(C(F)(F)F)cc2)C1 (relative stereo) [Compound 26]
Output: 0

---

Test system: wheat (Triticum aestivum)
test description: Test A postemergence, visual injury rating 0-100
Format: in vivo
applied conditions: 125 g ai/ha, 0 to 100 scale
Wheat plant response rating values by entry

Answered cases to consult:
CC1=[N+]([O-])C(C(=O)Nc2cccc(F)c2F)C(c2cccc(Oc3ncc(Cl)cn3)c2)C1 (racemic) [Compound 115] :: 10
CC1=[N+]([O-])C(C(=O)Nc2cccc(F)c2F)C(c2cccc(C(F)(F)F)n2)C1 (stereo not drawn) [Compound 90] :: 0
CC1=[N+]([O-])C(C(=O)Nc2cccc(F)c2F)C(c2cccc(Cl)n2)C1 (stereo not drawn) [Compound 89] :: 0

Task: Output measured Wheat plant response rating for this item: CC1=[N+]([O-])C(C(=O)Nc2cccc(F)c2F)C(c2ccc(Br)cn2)C1 (racemic) [Compound 66]
Output: 0

Task: Let me know recorded Wheat plant response rating for CC1=[N+]([O-])C(C(=O)Nc2cccc(F)c2F)C(c2cc(C)cc(CF)c2)C1 (racemic) [Compound 108] , thanks.
Output: 30

Task: Dear colleague, please send me the reported Wheat plant response rating for CC1=[N+]([O-])C(C(=O)Nc2cccc(F)c2F)C(c2cc(C(F)(F)F)ccc2C)C1 (stereo not drawn) [Compound 98] when you can.
Output: 60

Task: Assign Wheat plant response rating to the following record: CCc1cc(CC)cc(C2CC(C)=[N+]([O-])C2C(=O)Nc2cccc(F)c2F)c1 (racemic) [Compound 109]
Output: 20

---

Listed below: Barnyardgrass plant response rating (0 to 100 scale) values for each entry.
Tested on: barnyardgrass (Echinochloa crus-galli)
test description: Test B flooded paddy test, visual rating 0-100
applied conditions: Flood, 250 g ai/ha, applied to paddy water, rated after 13 to 15 days
Write the number on its own, no unit after it.

CC1=[N+]([O-])C(C(=O)Nc2cccc(F)c2F)C(c2ccc(F)c(Oc3ncc(F)cn3)c2)C1 (racemic) :: 0

Task: Identify the reported Barnyardgrass plant response rating (0 to 100 scale) for the following entry. CC1=[N+]([O-])C(C(=O)Nc2cccc(F)c2F)C(c2ccc3c(c2)OCO3)C1 (racemic)
Output: 60

Task: Report Barnyardgrass plant response rating (0 to 100 scale) for CC1=[N+]([O-])C(C(=O)Nc2cccc(F)c2F)C(c2ccc(C(F)(F)F)c(Br)c2)C1 (racemic)
Output: 0

Task: Fill in Barnyardgrass plant response rating (0 to 100 scale) for record CC1=[N+]([O-])C(C(=O)Nc2cccc(F)c2F)C(c2cc(C)cc(C)c2)C1 (racemic)
Output: 70

Task: Supply measured Barnyardgrass plant response rating (0 to 100 scale) of CC1=[N+]([O-])C(C(=O)Nc2cccc(F)c2F)C(c2ccc(C)c(Cl)c2)C1 (racemic) in your reply.
Output: 40

Task: Give Barnyardgrass plant response rating (0 to 100 scale) for the following compound: CC1=[N+]([O-])C(C(=O)Nc2cccc(F)c2F)C(c2cccc(Cl)c2C)C1 (racemic)
Output: 0

Task: Provide one value: measured Barnyardgrass plant response rating (0 to 100 scale) of CC1=[N+]([O-])[C@@H](C(=O)Nc2cccc(F)c2F)[C@H](c2ccc(F)c(F)c2)C1
Output: 90
